Tested on: Trypanosoma cruzi
Experiment: In vitro antiparasitic activity was determined against Trypanosoma cruzi
Type: functional, organism-based
pIC50: −log10 of the molar value.
quantity_measured: pIC50

A selection of reference data follows.
molecule | quantity_measured | recorded_measurement
NC(=O)[C@H](O)[C@H](O)COP(=O)(O)O | pIC50 | < 3.38
O=C(C[S+]([O-])C[C@H](O)COP(=O)(OCc1ccccc1)OCc1ccccc1)OCc1ccccc1 (stereo not given in full) | pIC50 | < 3.77
CC1(C)O[C@H](CO)[C@H](C(=O)NOCc2ccccc2)O1 | pIC50 | < 4.49
CC(=O)O[C@H](COP(=O)(OCc1ccccc1)OCc1ccccc1)[C@@H](OC(C)=O)C(=O)N(OCc1ccccc1)C(C)=O | pIC50 | < 3.84

Kindly review the next molecule as well.
Look up and state reported pIC50 for CC(=O)O[C@H](COP(=O)(OCc1ccccc1)OCc1ccccc1)CSCC(=O)OCc1ccccc1
< 3.79
